Measured inhibition, listed per entry for reference.
- assayProtocol: HepG2 cytotoxicity, primary screen, cytotoxicity control for P. falciparum antimalarial project, cell-based, ATP luminescence (AID 2303);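 note: 0% = DMSO wells and 100% = digitonin-killed cells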
- conditionDetails: HepG2 viability, 24-48 h, at 10 µM, active compounds read high
Write down the numeric answer in % and omit the unit.

CC(C)CCN=C(N)Nc1ccc(OCCCOc2ccc(NC(N)=NCCC(C)C)cc2)cc1: 0
CCCCCN1CCC(NS(=O)(=O)c2cccc(C(=O)Nc3ccc(C(F)(F)F)cc3)c2)C1 (stereo not drawn): 45
CCCN(CC)CCOC(=O)c1ccccc1: 2
CS(=O)(=O)c1cccc(-c2ccc3oc(C(N)=O)c(NC(=O)c4cccs4)c3c2)c1: 11
COc1ccc2c(NN=Cc3ccncc3)cc(C)nc2c1: -4
O=C(Nc1cccc(-c2cccc(-c3nc4ccccc4[nH]3)c2)c1)Nc1ccc(F)c(F)c1F: 78
NS(=O)(=O)c1ccc(CNc2ccc3ncc(-c4ccc(Cl)cc4)n3n2)cc1: 26
CC(C)(C)C(=O)Nc1ccc(C(=O)Nc2cccc(-c3nc4ccccc4[nH]3)c2)cc1: 56
O=C(NC1CCCCC1)c1csc(C2CCCN(C(=O)c3ccc(O)c(-c4cccc(C(F)(F)F)c4)c3)C2)n1 (stereo not drawn): 8
Cc1ccc(CNC(=O)[C@H](Cc2ccccc2)Nc2cc(C)nc(NCc3ccccc3C)n2)cc1: 23

*Q* # query: inhibition of entry O=C(NC1CC1)c1ccc(N2CCCC(COc3ccccc3F)C2)nc1 (stereo not drawn)
*A* 8

*Q* Dear colleague, I am looking for the recorded inhibition of the following compound: Nc1nc(N)c2c(ccn2Cc2cc3c(cc2Cl)OCO3)n1
*A* 67

*Q* Which inhibition is listed for COc1ccccc1C1CCN(C2CCC(NC(=O)/C=C/c3cc(F)cc(C(F)(F)F)c3)CC2)CC1 (stereo not drawn) ?
*A* 92

---

- assayProtocol: HepG2 cytotoxicity, primary screen, cytotoxicity control for P. falciparum antimalarial project, cell-based, ATP luminescence (AID 2303);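 note: 0% = DMSO wells and 100% = digitonin-killed cells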
- conditionDetails: HepG2 viability, 24-48 h, at 10 µM
Activity calls are given as the source filed them.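 How the source made its calls: active means inhibition above 50%; inactive means the rest.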
Allowed answers: active, inactive

CCN(CC)CCCC(C)Nc1ccnc2[nH]c3ccccc3c12 (stereo not drawn): inactive
NC(N)=Nc1nc(-c2cccc(NC(=O)NCc3ccc(OC(F)(F)F)cc3)c2)cs1: inactive
Cc1ccc(Cc2cnc(NCCSCc3ccc(CN4CCOCC4)o3)[nH]c2=O)cn1: inactive
CCOc1ccc2nc(-c3ccccc3)cc(NN=Cc3ccncc3)c2c1: inactive
COC(=O)[C@@H](NC(=O)[C@H](Cc1ccc(OC)c(OC)c1)Nc1ccc(C#N)c2ccccc12)c1ccc(O)cc1: inactive

*Q* Record request — test call for COc1ccc(C2CCN(CCCCNC(=O)c3ccc(NC(=O)c4ccc(Cl)cc4)cc3)CC2)c(OC)c1
*A* inactive

*Q* # lookup: test call for CCCCCCCCn1c2c(c(=N)c3c1CCC3)CCC2
*A* inactive

---

- assayProtocol: HepG2 cytotoxicity, primary screen, cytotoxicity control for P. falciparum antimalarial project, cell-based, ATP luminescence (AID 2303);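 note: 0% = DMSO wells and 100% = digitonin-killed cells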
- conditionDetails: HepG2 viability, 24-48 h, at 10 µM, active compounds read high
Each item that follows carries a reported inhibition.
Express the result in % but write the number alone.

O=C(Nc1ccccc1)c1ccc(-c2cc3ccncc3cc2OC2CCNCC2)s1: -1
O=S(=O)(c1ccc(Cl)cc1Cl)N1CCCCC(c2ccc(C(F)(F)F)cc2)=N1: 10
O=C(C=Cc1ccc(-c2nc3ccccc3[nH]2)cc1)NC1CCN(Cc2ccccc2)CC1: 15
COc1ccc2ccccc2c1CCCCN1CCN(CC(c2ccc(F)cc2)N2CCC(N3CCCC3)CC2)CC1 (centres undefined): 74
O=C(CNC(=O)c1ccc(O)cc1)Nc1ccc(-c2cccc(-c3nc4ccc(C(F)(F)F)cc4[nH]3)c2)cc1: 26

// next item, inhibition requested
*Q* Fill in: inhibition of Cn1cnc(CCNC(=O)c2ccc(-c3cccc(-c4nc5ccccc5[nH]4)c3)cc2)c1 is ___
*A* 1
